System: Molt4
Assay: Cell cytotoxicity assay (MTS), Molt4
Format: cell-based
Settings: Homo sapiens, MOLT-4
Method: Cells were seeded into the wells of 96-well plates (2000 cells/well). After an overnight culture, the cells were treated with different concentrations of a compound for 72 h. The CellTiter 96 AQueous one-solution cell proliferation assay (MTS) reagent was used to determine cytotoxicity. […] Next, the absorbance at 490 nm of the culture medium in each well was determined using a VersaMax microplate reader (Molecular Devices).
endpoint: IC50 (µM)
Field format: number, assumed µM, no unit text.

For the compound shown here, CCOC(=O)c1ccc2[nH]c(-c3ccccc3)cc(=O)c2c1 , give the reported IC50.
0.038

src = patent US12109207B2
